# Method: Metabolic stability in human liver microsomes assessed as compound remaining at 0.5 uM incubated for 10 mins in presence of NADPH by UV absorbance based assay
# Format: ADME, Microsome
# Assay Setup: read-out: Stability
Values of remaining at 10 min, 0.5 µM strictly less than 90% map to Satisfied, and values of at least 90% map to Not satisfied.

>>> df
                                   structure  assigned_class
 0  CCC[C@@H](CCO)Nc1nc(N)nc2cnn(Cc3ncc(C4=CC5(CCN(C6CCOCC6)CC5)C4)cc3OC)c12       Satisfied
 1  CCCCNc1nc(N)nc2c(C)nn(Cc3ncc(C4CCNCC4)cc3OC)c12   Not satisfied
 2  CCC[C@@H](CCO)Nc1nc(N)nc2cnn(Cc3ncc(C4CCN(C5CCOCC5)CC4)cc3OC)c12       Satisfied
 3  CCC[C@@H](CCO)Nc1nc(N)nc2cnn(Cc3ncc(C4CC5(C4)CN(C4CCOCC4)C5)cc3OC)c12       Satisfied
 4  CCCCNc1nc(N)nc2cnn(Cc3ncc(C4CCNCC4)cc3OC)c12   Not satisfied
 5  CCC[C@@H](CCO)Nc1nc(N)nc2cnn(Cc3ncc(C4CCN(CCO)CC4)cc3OC)c12   Not satisfied
 6  CCCCNc1nc(N)nc2c(C3CC3)nn(Cc3ncc(C4CCNCC4)cc3OC)c12   Not satisfied
 7  CCC[C@@H](CCO)Nc1nc(N)nc2cnn(Cc3ncc(C4=CC5(CCNCC5)C4)cc3OC)c12       Satisfied
 8  CCC[C@@H](CCO)Nc1nc(N)nc2cnn(Cc3ncc(C4CCN(C5CCNCC5)CC4)cc3OC)c12   Not satisfied
 9  CCC[C@@H](CCO)Nc1nc(N)nc2cnn(Cc3ccc(CNC4CCOCC4)cc3OC)c12       Satisfied
10  CCC[C@H](CCO)Nc1nc(N)nc2cnn(Cc3ncc(C4CCN(C5CCOCC5)CC4)cc3OC)c12       Satisfied
11  CCC[C@@H](CCO)Nc1nc(N)nc2cnn(Cc3ncc(C4CCC5(CC4)CN(C4CCOCC4)C5)cc3OC)c12       Satisfied
12  CCC[C@@H](CCO)Nc1nc(N)nc2cnn(Cc3ncc(C4CCN(C)CC4)cc3OC)c12       Satisfied
13  CCC[C@@H](CCO)Nc1nc(N)nc2cnn(Cc3ncc(C4CCNCC4)cc3OC)c12       Satisfied
14  CCC[C@@H](CCO)Nc1nc(N)nc2cnn(Cc3ncc(C4CCN(C(C)C)CC4)cc3OC)c12       Satisfied
15  CCC[C@@H](CCO)Nc1nc(N)nc2cnn(Cc3ncc(C4CC5(CNC5)C4)cc3OC)c12       Satisfied

====

# Method: Clearance in nontumor bearing Balb/C mouse at 0.5 mg/kg
# Format: ADME, organism-based
# Assay Setup: in vivo
Quantity Kind: clearance (mL/min/kg)

>>> df
                                  structure  quantity_kind  observed_measurement
0  CCC[C@@H](CCO)Nc1nc(N)nc2cnn(Cc3ncc(C4CCN(C5CCOCC5)CC4)cc3OC)c12      clearance                    22
1  CCC[C@@H](CCO)Nc1nc(N)nc2cnn(Cc3ccc(CNC4CCOCC4)cc3OC)c12      clearance                   149

Hello, the source for this data is ChEMBL document CHEMBL5357082, in case you need it.
